Tested on: T-Rex 293 cell line SC3 cells lacking increased expression of androgen receptor protein
Experiment: Cellular growth inhibition, T-Rex 293 SC3 cells without doxycycline, CellTiter-Glo
Format: cell-based
Details: 72 h, T-Rex 293 SC3 cells not exposed to doxycycline, CellTiter-Glo 2.0
propertyMeasured: GI50

Example compounds with recorded GI50:
>  <compound>
Cc1sc2c(c1C)C(c1ccc(-c3cc(OC4CCN(c5ncc(C(=O)N[C@H]6C(C)(C)[C@H](Oc7ccc(C#N)c(Cl)c7)C6(C)C)cn5)CC4)ns3)cc1)=N[C@@H](Cc1ncco1)c1nnc(C)n1-2

>  <GI50>
> 3000 nM

$$$$
>  <compound>
Cc1sc2c(c1C)C(c1ccc(OC3CC(CC4CCN(c5ncc(C(=O)N[C@H]6C(C)(C)[C@H](Oc7ccc(C#N)c(Cl)c7)C6(C)C)cn5)CC4)C3)cc1)=N[C@@H](Cc1ncco1)c1nnc(C)n1-2 (stereo partly shown)

>  <GI50>
> 3000 nM

$$$$
>  <compound>
Cc1sc2c(c1C)C(c1ccc(N3CCC4(CC3)CC(Nc3ncc(C(=O)N[C@H]5C(C)(C)[C@H](Oc6ccc(C#N)c(Cl)c6)C5(C)C)cn3)C4)cc1)=N[C@@H](Cc1ncco1)c1nnc(C)n1-2

>  <GI50>
< 500 nM

$$$$

Attention now shifts to the item below.
*Q* Any idea what its GI50 is? The compound is Cc1sc2c(c1C)C(c1ccc(OC3CC4(CCN(c5ncc(C(=O)N[C@H]6C(C)(C)[C@H](Oc7ccc(C#N)c(Cl)c7)C6(C)C)cn5)CC4)C3)cc1)=N[C@](C)(C(C)c1ncco1)c1nnc(C)n1-2 (stereo partly shown)
*A* > 3000 nM
